- experiment-notes: self-splicing fitness, log relative to wild type (ln ratio); higher = more splicing; Tetrahymena group I intron in knt gene, E. coli kanamycin selection, DiMSum; sequences stand for … in CUCUCU…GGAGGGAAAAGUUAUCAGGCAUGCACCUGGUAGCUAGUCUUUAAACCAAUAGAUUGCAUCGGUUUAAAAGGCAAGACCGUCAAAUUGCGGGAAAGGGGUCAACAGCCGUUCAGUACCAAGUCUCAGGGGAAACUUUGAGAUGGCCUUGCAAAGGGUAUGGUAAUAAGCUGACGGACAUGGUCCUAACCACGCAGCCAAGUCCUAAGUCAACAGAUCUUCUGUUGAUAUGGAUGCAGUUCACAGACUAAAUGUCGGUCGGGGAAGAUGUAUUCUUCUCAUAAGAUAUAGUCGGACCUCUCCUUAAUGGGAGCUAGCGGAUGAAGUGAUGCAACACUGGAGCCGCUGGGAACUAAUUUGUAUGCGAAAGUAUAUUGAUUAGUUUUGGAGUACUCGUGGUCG;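 further: selection with 25 µg/mL kanamycin versus none on LB agar overnight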
- conditions-used: 37 °C
property-label: self-splicing fitness (ln)
Please reply with the number alone, leaving off any unit.

Supply reported self-splicing fitness (ln) belonging to this sequence: GAGAAGCAAUAUUACGUUUG
-1.85

Further cases:
Supply reported self-splicing fitness (ln) belonging to this sequence: GGUCAGCAAUAUUACGGCUG
-0.439

Supply reported self-splicing fitness (ln) belonging to this sequence: CCGCAGCAAUAUUACGGACG
-0.204

Supply reported self-splicing fitness (ln) belonging to this sequence: AAUGAGCAAUAUUACGCAGU
-3.29

Supply reported self-splicing fitness (ln) belonging to this sequence: GACAAGCAAUAUUACGUUCU
-1.45

Supply reported self-splicing fitness (ln) belonging to this sequence: AAUUAGCAAUAUUACGGUUG
-0.897

Supply reported self-splicing fitness (ln) belonging to this sequence: AGCCAGCAAUAUUACGUUCA
-2.72

Supply reported self-splicing fitness (ln) belonging to this sequence: AUUAAGCAAUAUUACGCGUA
-0.834

Supply reported self-splicing fitness (ln) belonging to this sequence: CGACAGCAAUAUUACGGGUG
0.0253

Supply reported self-splicing fitness (ln) belonging to this sequence: AAGUAGCAAUAUUACGCGAU
-2.19

Supply reported self-splicing fitness (ln) belonging to this sequence: GCUCAGCAAUAUUACGUAGU
-0.522

Supply reported self-splicing fitness (ln) belonging to this sequence: AUUAAGCAAUAUUACGAAGC
-2.52

Supply reported self-splicing fitness (ln) belonging to this sequence: GCAAAGCAAUAUUACGGUAU
-0.489

Supply reported self-splicing fitness (ln) belonging to this sequence: AGAGAGCAAUAUUACGAGUU
-2.41

Supply reported self-splicing fitness (ln) belonging to this sequence: ACUGAGCAAUAUUACGUUUC
-2.6

Supply reported self-splicing fitness (ln) belonging to this sequence: AGCCAGCAAUAUUACGCCAC
-3.04

###

Each entry below carries its recorded self-splicing fitness (ln).
- experiment-notes: self-splicing fitness, log relative to wild type (ln ratio); higher = more splicing; Tetrahymena group I intron in knt gene, E. coli kanamycin selection, DiMSum; sequences stand for … in CUCUCU…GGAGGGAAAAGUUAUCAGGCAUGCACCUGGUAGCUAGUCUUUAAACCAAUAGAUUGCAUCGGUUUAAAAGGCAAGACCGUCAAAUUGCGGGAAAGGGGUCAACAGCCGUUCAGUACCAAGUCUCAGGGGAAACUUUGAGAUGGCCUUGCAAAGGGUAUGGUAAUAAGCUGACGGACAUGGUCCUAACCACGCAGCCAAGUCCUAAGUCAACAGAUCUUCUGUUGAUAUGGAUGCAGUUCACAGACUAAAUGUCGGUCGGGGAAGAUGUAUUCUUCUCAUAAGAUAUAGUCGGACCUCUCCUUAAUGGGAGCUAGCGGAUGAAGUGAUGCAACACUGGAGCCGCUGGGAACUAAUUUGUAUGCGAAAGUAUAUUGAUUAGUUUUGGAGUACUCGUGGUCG
- conditions-used: 30 °C
Please reply with the number alone, leaving off any unit.

Supply reported self-splicing fitness (ln) belonging to this sequence: AUCCAGCAAUAUUACGGAGU
-3.02

Supply reported self-splicing fitness (ln) belonging to this sequence: UAGCAGCAAUAUUACGCAAA
-1.89

Supply reported self-splicing fitness (ln) belonging to this sequence: CCCUAGCAAUAUUACGGCAG
-3.47

Further cases:
Supply reported self-splicing fitness (ln) belonging to this sequence: ACGUAGCAAUAUUACGAUAA
-1.52

Supply reported self-splicing fitness (ln) belonging to this sequence: UCCGAGCAAUAUUACGAUGC
-1.93

Supply reported self-splicing fitness (ln) belonging to this sequence: AGAUAGCAAUAUUACGGAAG
-3.57

Supply reported self-splicing fitness (ln) belonging to this sequence: UAAGAGCAAUAUUACGGUGU
-2.19

Supply reported self-splicing fitness (ln) belonging to this sequence: UGGCAGCAAUAUUACGUCGA
-0.694

Supply reported self-splicing fitness (ln) belonging to this sequence: CGCCAGCAAUAUUACGGUUA
-0.708

Supply reported self-splicing fitness (ln) belonging to this sequence: UCAAAGCAAUAUUACGCAGU
-3.16

Supply reported self-splicing fitness (ln) belonging to this sequence: UAGUAGCAAUAUUACGUGCU
-1.79

Supply reported self-splicing fitness (ln) belonging to this sequence: AAAAAGCAAUAUUACGGGCG
-0.625

Supply reported self-splicing fitness (ln) belonging to this sequence: CGCAAGCAAUAUUACGGUAC
-4.99

Supply reported self-splicing fitness (ln) belonging to this sequence: CAGAAGCAAUAUUACGGUUG
-1.2

Supply reported self-splicing fitness (ln) belonging to this sequence: GACGAGCAAUAUUACGAUAC
-4.85

Supply reported self-splicing fitness (ln) belonging to this sequence: UAAGAGCAAUAUUACGAUGC
-3.73

###

- experiment-notes: self-splicing fitness, log relative to wild type (ln ratio); higher = more splicing; Tetrahymena group I intron in knt gene, E. coli kanamycin selection, DiMSum; sequences stand for … in CUCUCU…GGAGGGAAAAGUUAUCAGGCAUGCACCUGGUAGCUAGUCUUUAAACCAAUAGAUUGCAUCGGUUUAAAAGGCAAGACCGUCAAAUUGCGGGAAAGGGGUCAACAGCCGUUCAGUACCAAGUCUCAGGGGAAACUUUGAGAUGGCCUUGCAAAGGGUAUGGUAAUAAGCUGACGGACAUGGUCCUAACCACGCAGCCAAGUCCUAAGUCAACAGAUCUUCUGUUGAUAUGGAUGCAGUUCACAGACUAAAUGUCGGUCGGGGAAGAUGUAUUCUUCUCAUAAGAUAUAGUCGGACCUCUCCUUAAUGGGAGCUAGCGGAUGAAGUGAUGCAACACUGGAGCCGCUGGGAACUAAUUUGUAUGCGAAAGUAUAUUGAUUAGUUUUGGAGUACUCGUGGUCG
- conditions-used: 37 °C
property-label: self-splicing fitness (ln)

Supply reported self-splicing fitness (ln) belonging to this sequence: UGAUAGCAAUAUUACGUGAC
-1.82

Supply reported self-splicing fitness (ln) belonging to this sequence: CCCAAGCAAUAUUACGGUGU
-1

Supply reported self-splicing fitness (ln) belonging to this sequence: GACCAGCAAUAUUACGUAUG
-0.824

Further cases:
Supply reported self-splicing fitness (ln) belonging to this sequence: UUAUAGCAAUAUUACGGCCA
-0.579

Supply reported self-splicing fitness (ln) belonging to this sequence: UACAAGCAAUAUUACGGAUA
-0.839

###

- experiment-notes: self-splicing fitness, log relative to wild type (ln ratio); higher = more splicing; Tetrahymena group I intron in knt gene, E. coli kanamycin selection, DiMSum; sequences stand for … in CUCUCU…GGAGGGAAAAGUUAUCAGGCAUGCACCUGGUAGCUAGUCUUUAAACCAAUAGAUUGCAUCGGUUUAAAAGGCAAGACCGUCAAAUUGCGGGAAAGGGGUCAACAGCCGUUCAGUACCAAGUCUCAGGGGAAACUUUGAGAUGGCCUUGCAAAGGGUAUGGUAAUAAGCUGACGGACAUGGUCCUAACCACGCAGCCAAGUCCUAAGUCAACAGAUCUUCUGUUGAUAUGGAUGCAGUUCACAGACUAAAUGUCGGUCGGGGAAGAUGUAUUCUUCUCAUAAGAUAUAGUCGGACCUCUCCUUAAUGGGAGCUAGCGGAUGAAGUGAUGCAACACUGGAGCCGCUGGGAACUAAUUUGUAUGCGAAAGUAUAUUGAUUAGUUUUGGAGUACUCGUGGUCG
- conditions-used: 37 °C
property-label: self-splicing fitness (ln)
Please reply with the number alone, leaving off any unit.

In the examples that follow, each entry is paired with its recorded self-splicing fitness (ln).
Supply reported self-splicing fitness (ln) belonging to this sequence: CGGAAGCAAUAUUACGUAGU
-1.97

Supply reported self-splicing fitness (ln) belonging to this sequence: UUCUAGCAAUAUUACGGGAU
-2.37

Supply reported self-splicing fitness (ln) belonging to this sequence: AAAGAGCAAUAUUACGCCGG
-2.53

Supply reported self-splicing fitness (ln) belonging to this sequence: UCGGAGCAAUAUUACGUGAA
-1.63

Supply reported self-splicing fitness (ln) belonging to this sequence: AUUGAGCAAUAUUACGACUC
-1.59

Supply reported self-splicing fitness (ln) belonging to this sequence: GAGGAGCAAUAUUACGGUCU
-0.511

Further cases:
Supply reported self-splicing fitness (ln) belonging to this sequence: AACAAGCAAUAUUACGGCUC
0.236

Supply reported self-splicing fitness (ln) belonging to this sequence: UUCUAGCAAUAUUACGGUCG
0.00892

Supply reported self-splicing fitness (ln) belonging to this sequence: GCUGAGCAAUAUUACGUCAC
-1.66

Supply reported self-splicing fitness (ln) belonging to this sequence: UCUAAGCAAUAUUACGGUAC
-2.78

Data credit: the supplement of paper PMC7877785
